The measurements presented in this section are drawn from patent US12503438B2.

target: Mer (Homo sapiens, UniProt Q12866); assay: Mer autophosphorylation ELISA in transient transfected 293A cells; conditions: cellular activity; MERTK-transfected 293A cells, phospho-Mer ELISA
Sequence (Q12866 21-999): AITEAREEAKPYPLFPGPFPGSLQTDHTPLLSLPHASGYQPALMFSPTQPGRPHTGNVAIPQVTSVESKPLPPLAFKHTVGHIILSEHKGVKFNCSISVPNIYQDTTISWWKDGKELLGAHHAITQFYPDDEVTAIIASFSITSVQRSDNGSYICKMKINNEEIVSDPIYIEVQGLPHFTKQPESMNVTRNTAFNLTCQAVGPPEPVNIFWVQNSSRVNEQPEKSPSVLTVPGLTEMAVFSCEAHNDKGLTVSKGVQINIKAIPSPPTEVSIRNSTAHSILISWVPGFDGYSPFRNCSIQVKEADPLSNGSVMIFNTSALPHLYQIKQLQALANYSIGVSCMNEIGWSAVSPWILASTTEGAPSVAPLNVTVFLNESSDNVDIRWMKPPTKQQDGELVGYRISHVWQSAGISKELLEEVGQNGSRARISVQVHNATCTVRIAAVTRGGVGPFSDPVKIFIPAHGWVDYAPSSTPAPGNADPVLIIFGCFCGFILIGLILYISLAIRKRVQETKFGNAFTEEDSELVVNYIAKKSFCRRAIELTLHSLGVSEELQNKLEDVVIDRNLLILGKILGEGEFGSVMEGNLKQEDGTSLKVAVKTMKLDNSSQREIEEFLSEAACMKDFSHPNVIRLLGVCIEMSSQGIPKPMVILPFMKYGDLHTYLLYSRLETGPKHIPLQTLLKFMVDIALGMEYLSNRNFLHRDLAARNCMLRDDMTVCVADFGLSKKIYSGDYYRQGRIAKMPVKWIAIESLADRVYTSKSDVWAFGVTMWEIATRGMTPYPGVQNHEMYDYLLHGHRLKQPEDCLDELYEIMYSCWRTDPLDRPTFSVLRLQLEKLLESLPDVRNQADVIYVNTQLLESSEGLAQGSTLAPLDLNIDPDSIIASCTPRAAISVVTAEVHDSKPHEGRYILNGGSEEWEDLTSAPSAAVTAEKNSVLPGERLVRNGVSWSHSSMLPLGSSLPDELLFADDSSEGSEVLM
PARAMETER MEASURED: IC50

Guide cases for IC50, answers given:
SMILES REPR: Cc1cc2c(Oc3ccc(NC(=O)C4(C(=O)Nc5ccc(F)cc5)CC4)cc3)ccnc2cc1-c1ncc[nH]1
IC50: 10 to 100 nM
//
SMILES REPR: O=C(Nc1ccc(F)cc1)C1(C(=O)Nc2ccc(Oc3ccnc4cc(-c5ccc(F)nc5)ccc34)cc2)CC1
IC50: 10 to 100 nM
//
SMILES REPR: COCCn1cc(-c2ccc3c(Oc4ccc(NC(=O)C5(C(=O)Nc6ccc(F)cc6)CC5)cc4)ccnc3c2)cn1
IC50: ≤ 10 nM

# batch: return IC50 for each of the 6 compounds below
1. O=C(Nc1ccc(F)cc1)C1(C(=O)Nc2ccc(Oc3ccnc4cc(-c5cnc6[nH]ncc6c5)ccc34)cc2)CC1
2. O=C(Nc1ccc(F)cc1)C1(C(=O)Nc2ccc(Oc3ccnc4cc(-c5cc6n(n5)CCC6)ccc34)cc2)CC1
3. Cc1cc(-c2ccc3c(Oc4ccc(NC(=O)C5(C(=O)Nc6ccc(F)cc6)CC5)cc4)ccnc3c2)n[nH]1
4. O=C(Nc1ccc(F)cc1)C1(C(=O)Nc2ccc(Oc3ccnc4cc(-c5cnn(C6CCNCC6)c5)ccc34)cc2)CC1
5. O=C(Nc1ccc(F)cc1)C1(C(=O)Nc2ccc(Oc3ccnc4cc(-c5cnn(CCN6CCOCC6)c5)ccc34)cc2)CC1
6. Nc1ccc(-c2ccc3c(Oc4ccc(NC(=O)C5(C(=O)Nc6ccc(F)cc6)CC5)cc4)ccnc3c2)cn1

["10 to 100 nM", "10 to 100 nM", "10 to 100 nM", "10 to 100 nM", "≤ 10 nM", "10 to 100 nM"]

# batch: return IC50 for each of the 5 compounds below
1. O=C(Nc1ccc(F)cc1)C1(C(=O)Nc2ccc(Oc3ccnc4cc(-c5ccccc5)ccc34)cc2)CC1
2. O=C(Nc1ccc(F)cc1)C1(C(=O)Nc2ccc(Oc3ccnc4cc(-c5ccc(O)nc5)ccc34)cc2)CC1
3. Cc1cc2c(Oc3ccc(NC(=O)C4(C(=O)Nc5ccc(F)cc5)CC4)cc3F)ccnc2cc1-c1ncc[nH]1
4. Cn1ccc(-c2ccc3c(Oc4ccc(NC(=O)C5(C(=O)Nc6ccc(F)cc6)CC5)cc4)ccnc3c2)cc1=O
5. O=C(Nc1ccc(F)cc1)C1(C(=O)Nc2ccc(Oc3ccnc4cc(-c5cnn(C(F)F)c5)ccc34)cc2)CC1

["100 to 300 nM", "10 to 100 nM", "10 to 100 nM", "10 to 100 nM", "10 to 100 nM"]

---

Answer each item with its documented pIC50.
molecular target: AXL (Homo sapiens); construct: endogenous in cells; assay: AXL autophosphorylation ELISA in A-172 cells; settings: cellular activity, Gas6-stimulated, phospho-AXL ELISA
Sequence (P30530 26-894): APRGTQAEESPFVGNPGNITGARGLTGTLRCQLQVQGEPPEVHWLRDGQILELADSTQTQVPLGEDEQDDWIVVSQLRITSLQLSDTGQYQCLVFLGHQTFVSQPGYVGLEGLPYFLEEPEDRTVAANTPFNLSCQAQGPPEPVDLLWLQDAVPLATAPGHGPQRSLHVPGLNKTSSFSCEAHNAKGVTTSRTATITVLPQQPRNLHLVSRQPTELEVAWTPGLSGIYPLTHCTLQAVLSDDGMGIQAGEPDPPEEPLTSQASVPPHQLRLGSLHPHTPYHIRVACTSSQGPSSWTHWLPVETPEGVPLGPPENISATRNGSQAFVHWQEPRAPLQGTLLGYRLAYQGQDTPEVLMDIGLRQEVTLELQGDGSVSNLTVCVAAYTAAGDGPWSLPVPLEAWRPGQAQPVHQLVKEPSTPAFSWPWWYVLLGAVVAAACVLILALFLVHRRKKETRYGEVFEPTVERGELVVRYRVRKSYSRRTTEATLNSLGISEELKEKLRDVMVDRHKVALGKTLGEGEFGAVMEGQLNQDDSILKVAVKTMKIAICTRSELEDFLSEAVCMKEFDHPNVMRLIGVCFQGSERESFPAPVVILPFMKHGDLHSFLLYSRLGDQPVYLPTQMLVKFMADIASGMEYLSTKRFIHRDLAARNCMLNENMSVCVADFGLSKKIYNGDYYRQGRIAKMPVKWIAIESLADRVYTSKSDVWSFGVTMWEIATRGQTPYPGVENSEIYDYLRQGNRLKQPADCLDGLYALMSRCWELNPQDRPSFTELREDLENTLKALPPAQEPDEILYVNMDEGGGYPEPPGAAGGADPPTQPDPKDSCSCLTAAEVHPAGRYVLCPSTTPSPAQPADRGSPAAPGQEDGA
pIC50: −log10 of the molar value.

COMPOUND: O=C(Nc1ccc(F)cc1)C1(C(=O)Nc2ccc(Oc3ccnc4cc(-c5cnn(C(F)(F)F)c5)ccc34)cc2)CC1
pIC50: 7.00 to 8.00
--
COMPOUND: CNC(=O)c1cc2c(Oc3ccc(NC(=O)C4(C(=O)Nc5ccc(F)cc5)CC4)cc3)ccnc2cc1-c1cnn(C)c1
pIC50: 7.00 to 8.00
--
COMPOUND: O=C(Nc1ccc(F)cc1)C1(C(=O)Nc2ccc(Oc3ccnc4cc(-c5cccnc5)ccc34)cc2)CC1
pIC50: 7.00 to 8.00

# batch: return pIC50 for each of the 8 compounds below
1. O=C(Nc1ccc(F)cc1)C1(C(=O)Nc2ccc(Oc3ccnc4cc(-c5ccc(N6CCCC6)nc5)ccc34)cc2)CC1
2. O=C(Nc1ccc(F)cc1)C1(C(=O)Nc2ccc(Oc3ccnc4cc(-c5cnn(CCF)c5)ccc34)cc2)CC1
3. O=C(Nc1ccc(F)cc1)C1(C(=O)Nc2ccc(Oc3ccnc4cc(-c5cnn(C(F)F)c5)ccc34)cc2)CC1
4. Cc1cc2c(Oc3cc(F)c(NC(=O)C4(C(=O)Nc5ccc(F)cc5)CC4)cc3F)ccnc2cc1-c1ncc[nH]1
5. N#Cc1cncc(-c2ccc3c(Oc4ccc(NC(=O)C5(C(=O)Nc6ccc(F)cc6)CC5)cc4)ccnc3c2)c1
6. O=C(Nc1ccc(F)cc1)C1(C(=O)Nc2ccc(Oc3ccnc4cc(-c5cnn6c5CCC6)ccc34)cc2)CC1
7. COCCn1cc(-c2ccc3c(Oc4ccc(NC(=O)C5(C(=O)Nc6ccc(F)cc6)CC5)cc4)ccnc3c2)cn1
8. O=C(Nc1ccc(F)cc1)C1(C(=O)Nc2ccc(Oc3ccnc4cc(C5CCOC5)ccc34)cc2)CC1 (single isomer, unassigned) [Compound 88]

["6.52 to 7.00", "≥ 8.00", "≥ 8.00", "≥ 8.00", "7.00 to 8.00", "7.00 to 8.00", "≥ 8.00", "< 6.52"]

# batch: return pIC50 for each of the 3 compounds below
1. O=C(Nc1ccc(F)cc1)C1(C(=O)Nc2ccc(Oc3ccnc4cc(-c5cnn[nH]5)ccc34)cc2)CC1
2. O=C(Nc1ccc(F)cc1)C1(C(=O)Nc2ccc(Oc3ccnc4cc(-c5cc6ccccn6n5)ccc34)cc2)CC1
3. O=C(Nc1ccc(F)cc1)C1(C(=O)Nc2ccc(Oc3ccnc4cc(-c5cnoc5)ccc34)cc2)CC1

< 6.52
6.52 to 7.00
≥ 8.00
